The reported measurements were obtained from patent US9796674B2.

MEASUREMENT_DESCRIPTION: Single-dose pharmacokinetics in female FVB mice
Assay type: in vivo, mouse
CONDITION: female, FVB/NJ, mouse, plasma, po, 50 mg/kg
PARAMETER: AUC(0-inf)

>>> reading("O=C(NC1CCCCC1)N(Cc1ccccc1)CC1CCNCC1")
"2600 ng·h/mL"

----------
MEASUREMENT_DESCRIPTION: Single-dose pharmacokinetics in female FVB mice
Assay type: in vivo, mouse
CONDITION: female, FVB/NJ, mouse, brain, ip, 30 mg/kg
PARAMETER: Cmax

>>> reading("O=C(NC1CCCCC1)N(Cc1ccccc1)CC1CCNCC1")
"348 ng/mL"
